Conditions: saturated aqueous solution, (298 ± 1) K
Known pH saturated (pH of the saturated IL solution) of a selection of molecules
# answer = number (no unit)

molecule | assay value
CCCC[N+](CCCC)(CCCC)CCCC.O=c1[n-]c2[nH]c(=O)[nH]c2c(=O)[nH]1 [[N4444][Ur], Tetrabutylammonium urate] | 8.31
CCCC[N+](CCCC)(CCCC)CCCC.Cn1c(=O)c2[n-]cnc2n(C)c1=O [[N4444][Theop], Tetrabutylammonium theophyllinate] | 10.89
CCCC[N+](CCCC)(CCCC)CCCC.Cn1cnc2c1c(=O)[n-]c(=O)n2C [[N4444][Theob], Tetrabutylammonium theobrominate] | 12.76

Looking for the measured pH saturated (pH of the saturated IL solution) of CCCC[N+](CCCC)(CCCC)CCCC.O=c1[nH]c(=O)c2[n-]cnc2[nH]1 [[N4444][Xan], Tetrabutylammonium xanthinate] , can you help?
10.14

---

Known Molar water-solubility (S) of a selection of molecules
Settings: pure water, (298 ± 1) K, 72 h, shake-flask
The reply should be a number in mM, with the unit left off.

Some solved cases for reference:
molecule | measured property | assay value
CCCC[N+](CCCC)(CCCC)CCCC.O=c1[n-]c2[nH]c(=O)[nH]c2c(=O)[nH]1 [[N4444][Ur], Tetrabutylammonium urate] | Molar water-solubility (S) | 96
CCCC[N+](CCCC)(CCCC)CCCC.O=c1[nH]c(=O)c2[n-]cnc2[nH]1 [[N4444][Xan], Tetrabutylammonium xanthinate] | Molar water-solubility (S) | 170
CCCC[N+](CCCC)(CCCC)CCCC.Cn1c(=O)c2[n-]cnc2n(C)c1=O [[N4444][Theop], Tetrabutylammonium theophyllinate] | Molar water-solubility (S) | 2200

Looking for the measured Molar water-solubility (S) of CCCC[N+](CCCC)(CCCC)CCCC.Cn1cnc2c1c(=O)[n-]c(=O)n2C [[N4444][Theob], Tetrabutylammonium theobrominate] , can you help?
1590

---

Details: TGA, nitrogen, 2 K·min^−1, peak of the derivative
Known Decomposition temperature (Td) of a selection of molecules
Form field: result (number plus unit)

Some solved cases for reference:
molecule | Decomposition temperature (Td)
CCCC[N+](CCCC)(CCCC)CCCC.Cn1c(=O)c2[n-]cnc2n(C)c1=O [[N4444][Theop], Tetrabutylammonium theophyllinate] | 486 ± 1 K
CCCC[N+](CCCC)(CCCC)CCCC.O=c1[n-]c2[nH]c(=O)[nH]c2c(=O)[nH]1 [[N4444][Ur], Tetrabutylammonium urate] | 505 ± 1 K
CCCC[N+](CCCC)(CCCC)CCCC.O=c1[nH]c(=O)c2[n-]cnc2[nH]1 [[N4444][Xan], Tetrabutylammonium xanthinate] | 495 ± 1 K

Looking for the measured Decomposition temperature (Td) of CCCC[N+](CCCC)(CCCC)CCCC.Cn1cnc2c1c(=O)[n-]c(=O)n2C [[N4444][Theob], Tetrabutylammonium theobrominate] , can you help?
457 ± 1 K
